meta.source: patent US9453062B2

tested-target: hGLP-1R (Homo sapiens)
Construct: expressed in transfected cells; host or cells: CHO
Sequence (P43220 24-463): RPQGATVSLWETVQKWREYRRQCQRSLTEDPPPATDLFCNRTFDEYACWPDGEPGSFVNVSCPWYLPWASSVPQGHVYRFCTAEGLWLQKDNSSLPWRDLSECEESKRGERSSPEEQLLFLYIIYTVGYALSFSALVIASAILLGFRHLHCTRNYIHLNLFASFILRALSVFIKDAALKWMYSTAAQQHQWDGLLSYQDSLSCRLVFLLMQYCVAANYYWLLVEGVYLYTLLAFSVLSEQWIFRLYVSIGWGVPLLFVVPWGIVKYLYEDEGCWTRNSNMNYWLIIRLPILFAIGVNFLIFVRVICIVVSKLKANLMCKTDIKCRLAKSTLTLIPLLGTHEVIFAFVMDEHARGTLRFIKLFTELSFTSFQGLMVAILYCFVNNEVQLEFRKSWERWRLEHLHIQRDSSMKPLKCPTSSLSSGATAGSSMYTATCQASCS
test-name: hGLP-1R-mediated cAMP induction assay in CHO cell line;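 further: CHO cells expressing human GLP-1R, treated 30 min at 37 °C, intracellular cAMP measured by competitive fluorescent immunoassay and converted via a cAMP standard curve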
Format: cell-based
condition-context: Table 3; CHO hGLP1R cells
Where no end group is shown, it is not given here. [ ]: non-standard residue; d: D form. The star is where a group is joined. Biotin = O=C1N[C@H]2[C@H](CS[C@H]2CCCCC(=O)*)N1; Palmitoyl = CCCCCCCCCCCCCCCC(=O)*; Aib = CC(C)(N)C(=O)O
observed-property: pEC50
Reminder that pEC50 means the negative base-10 logarithm of the concentration expressed in mol/L.

Qu. Name the reported pEC50 value associated with the substance H-Y[Aib]EGTFTSDYSIYMEKEAVREFIAWLVKGGPSSGAPPPSKKKKKK(Biotin)-NH2 [Compound 080]
Ans. 8.95

Qu. Endpoint output: pEC50 of Y[Aib]EGTFTSDYSIYMEKEAVREFIAWLVKGGPSSGAPPPSKKKKKK-NH2 [Compound 071] . Value?
Ans. 8.42

Qu. Return reported pEC50; argument: Y[Aib]EGTFTSDYSIYMEKEAVREFIAWLVKGGPSSGAPPPSKKKKKK(Palmitoyl)-NH2 [Compound 078]
Ans. 9.84

----------
tested-target: hGIPR (Homo sapiens)
Construct: expressed in transfected cells; host or cells: CHO
Sequence (P48546 22-466): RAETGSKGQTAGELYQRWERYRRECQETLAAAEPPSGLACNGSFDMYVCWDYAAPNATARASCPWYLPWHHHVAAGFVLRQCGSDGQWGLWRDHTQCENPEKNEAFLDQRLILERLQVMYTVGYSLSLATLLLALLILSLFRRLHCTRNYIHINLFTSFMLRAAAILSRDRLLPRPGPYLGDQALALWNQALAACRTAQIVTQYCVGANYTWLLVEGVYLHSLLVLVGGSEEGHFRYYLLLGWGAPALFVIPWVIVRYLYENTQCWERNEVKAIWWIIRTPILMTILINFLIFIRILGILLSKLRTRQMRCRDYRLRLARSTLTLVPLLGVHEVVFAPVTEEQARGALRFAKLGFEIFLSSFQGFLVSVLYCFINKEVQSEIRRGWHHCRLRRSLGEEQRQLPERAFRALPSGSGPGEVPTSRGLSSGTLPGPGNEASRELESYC
test-name: hGIPR-mediated cAMP induction assay in CHO cell line
Type: cell-based
condition-context: Table 3; CHO hGIPR cells
Where no end group is shown, it is not given here. [ ]: non-standard residue; d: D form. The star is where a group is joined. Biotin = O=C1N[C@H]2[C@H](CS[C@H]2CCCCC(=O)*)N1; Palmitoyl = CCCCCCCCCCCCCCCC(=O)*; Aib = CC(C)(N)C(=O)O
observed-property: pEC50
Note on pEC50: it is the negative log10 of concentration, concentration in mol/L.

Qu. Identify the measured pEC50 of Y[Aib]EGTFTSDYSIYMEKEAVREFIAWLVKGGPSSGAPPPSKKKKKK-NH2 [Compound 071] for hGIPR (Homo sapiens).
Ans. 9.11

Qu. Form entry - test system: hGIPR (Homo sapiens); read-out: pEC50; substance: Y[Aib]EGTFTSDYSIYMEKEAVREFIAWLVKGGPSSGAPPPSKKKKKK(Palmitoyl)-NH2 [Compound 078]
Ans. 10.72

Qu. Under hGIPR (Homo sapiens): pEC50 value of H-Y[Aib]EGTFTSDYSIYMEKEAVREFIAWLVKGGPSSGAPPPSKKKKKK(Biotin)-NH2 [Compound 080] ?
Ans. 10.00
